Items are presented alongside their recorded pIC50.
# Tested on: U87 brain cancer cell line
# METHOD NOTES: In vitro cell survival assay (nuclear staining), U87
# Format: cell-based
# TEST PARAMETERS: U87, 48 hours treatment, cell number by nuclear staining
pIC50: −log10 of the molar value.
ASSAY ENDPOINT: pIC50

[[record]]
compound = "COc1ccc([C@@H](C)Nc2cccc3c2C(=O)N(C2CCC(=O)NC2=O)C3=O)cc1 (some centres unmarked) [AST-DT-218]"
assay_endpoint = "pIC50"
readout_number = 5.47

[[record]]
compound = "Cn1nnc2c(C(N)=O)ncn2c1=O [Temozolomide, temozolomide, reference compound]"
assay_endpoint = "pIC50"
readout_number = 3.54

